conditions: in methanol, 288.15 K
experimental-endpoint: solubility (mole fraction)
Field format: numeric only.

Query O=C(Nc1ccccc1-c1ccc(Cl)cc1)c1cccnc1Cl yields solubility (mole fraction) of 0.00186

====

conditions: in n-propyl acetate, 313.15 K
experimental-endpoint: solubility (mole fraction)
Give the value as a plain number.

response.value for O=C(Nc1ccccc1-c1ccc(Cl)cc1)c1cccnc1Cl (field: solubility (mole fraction)) = 0.016

====

conditions: in isopropanol, 303.15 K
experimental-endpoint: solubility (mole fraction)
Reply briefly: the number, and no unit.

Form field solubility (mole fraction), entry O=C(Nc1ccccc1-c1ccc(Cl)cc1)c1cccnc1Cl : 0.00162

====

details: in ethyl acetate, 313.15 K
experimental-endpoint: solubility (mole fraction)
Give the value as a plain number.

The recorded solubility (mole fraction) for entry O=C(Nc1ccccc1-c1ccc(Cl)cc1)c1cccnc1Cl equals 0.0168

====

details: in n-propyl acetate, 308.15 K
experimental-endpoint: solubility (mole fraction)

// solubility (mole fraction) lookup, compound = O=C(Nc1ccccc1-c1ccc(Cl)cc1)c1cccnc1Cl , result: 0.0135

====

conditions: in ethanol, 288.15 K
experimental-endpoint: solubility (mole fraction)
Just the number.

Kindly note the recorded solubility (mole fraction) for O=C(Nc1ccccc1-c1ccc(Cl)cc1)c1cccnc1Cl , which is 0.00163

====

conditions: in n-propyl acetate, 303.15 K
experimental-endpoint: solubility (mole fraction)
Output spec: single numeric token, no unit.

The compound listed as O=C(Nc1ccccc1-c1ccc(Cl)cc1)c1cccnc1Cl shows solubility (mole fraction) equal to 0.0112

====

settings: in isopropanol, 298.15 K
experimental-endpoint: solubility (mole fraction)
Field format: numeric only.

The value of solubility (mole fraction) measured for the compound O=C(Nc1ccccc1-c1ccc(Cl)cc1)c1cccnc1Cl turned out to be 0.00124

====

details: in n-propyl acetate, 298.15 K
experimental-endpoint: solubility (mole fraction)
No unit in the answer, only the number.

The reported solubility (mole fraction) of the compound O=C(Nc1ccccc1-c1ccc(Cl)cc1)c1cccnc1Cl was 0.00943

====

details: in methanol, 313.15 K
experimental-endpoint: solubility (mole fraction)
// no unit, no text: just the number

Briefly, solubility (mole fraction) measured for O=C(Nc1ccccc1-c1ccc(Cl)cc1)c1cccnc1Cl : 0.0047

====

details: in methanol, 298.15 K
experimental-endpoint: solubility (mole fraction)
# output: bare number, no unit

// sample O=C(Nc1ccccc1-c1ccc(Cl)cc1)c1cccnc1Cl , its solubility (mole fraction) was 0.0026

====

conditions: in ethyl acetate, 288.15 K
experimental-endpoint: solubility (mole fraction)
Form rule: numeric answer, no unit written next to it.

Record O=C(Nc1ccccc1-c1ccc(Cl)cc1)c1cccnc1Cl , field solubility (mole fraction): 0.0076

====

conditions: in n-propyl acetate, 293.15 K
experimental-endpoint: solubility (mole fraction)
// response body must contain only the number

Quick note, solubility (mole fraction) for O=C(Nc1ccccc1-c1ccc(Cl)cc1)c1cccnc1Cl landed at 0.00822

====

conditions: in ethanol, 293.15 K
experimental-endpoint: solubility (mole fraction)
Enter the number alone.

Entry O=C(Nc1ccccc1-c1ccc(Cl)cc1)c1cccnc1Cl , solubility (mole fraction) reported as 0.00194

====

settings: in ethanol, 313.15 K
experimental-endpoint: solubility (mole fraction)
In your answer, state the number alone without any accompanying words.

Looking up O=C(Nc1ccccc1-c1ccc(Cl)cc1)c1cccnc1Cl , I found its solubility (mole fraction) recorded as 0.00428

====

conditions: in ethyl acetate, 303.15 K
experimental-endpoint: solubility (mole fraction)
# answer = number (no unit)

For this compound ( O=C(Nc1ccccc1-c1ccc(Cl)cc1)c1cccnc1Cl ), measured solubility (mole fraction) is 0.0117

====

conditions: in isopropanol, 308.15 K
experimental-endpoint: solubility (mole fraction)

Lab note: measured solubility (mole fraction) of O=C(Nc1ccccc1-c1ccc(Cl)cc1)c1cccnc1Cl was 0.002

====

details: in ethanol, 298.15 K
experimental-endpoint: solubility (mole fraction)
Number only, no unit.

The reported value for O=C(Nc1ccccc1-c1ccc(Cl)cc1)c1cccnc1Cl in terms of solubility (mole fraction) is 0.0023

====

conditions: in isopropanol, 288.15 K
experimental-endpoint: solubility (mole fraction)
Output spec: single numeric token, no unit.

// O=C(Nc1ccccc1-c1ccc(Cl)cc1)c1cccnc1Cl : solubility (mole fraction) value = 0.000816

====

conditions: in ethanol, 303.15 K
experimental-endpoint: solubility (mole fraction)
Answer field: number only, no words.

Reported solubility (mole fraction) of O=C(Nc1ccccc1-c1ccc(Cl)cc1)c1cccnc1Cl : 0.00282

====

settings: in ethyl acetate, 308.15 K
experimental-endpoint: solubility (mole fraction)
# print the numeric value only

For O=C(Nc1ccccc1-c1ccc(Cl)cc1)c1cccnc1Cl the molecule record lists solubility (mole fraction) as 0.0141

====

conditions: in ethyl acetate, 293.15 K
experimental-endpoint: solubility (mole fraction)

Noted for O=C(Nc1ccccc1-c1ccc(Cl)cc1)c1cccnc1Cl : its solubility (mole fraction) reads 0.00879

====

details: in methanol, 303.15 K
experimental-endpoint: solubility (mole fraction)
Give the figure only, with no unit attached.

Item: O=C(Nc1ccccc1-c1ccc(Cl)cc1)c1cccnc1Cl | solubility (mole fraction): 0.00315

====

conditions: in isopropanol, 313.15 K
experimental-endpoint: solubility (mole fraction)
Give your answer as a number; write no unit.

The compound listed as O=C(Nc1ccccc1-c1ccc(Cl)cc1)c1cccnc1Cl has a reported solubility (mole fraction) of 0.00251
